particulars: in anisole, 283.15 K
measured_parameter: solubility (mole fraction)

Task: Which measured solubility (mole fraction) value corresponds to `COc1ccc(CC(=O)O)cc1` ?
Result: 0.0323

###

particulars: in water, 303.15 K
measured_parameter: solubility (mole fraction)
The answer should be written as a number, with no unit following it.

Task: Return reported solubility (mole fraction); argument: `COc1ccc(CC(=O)O)cc1`
Result: 0.0057

###

particulars: in morpholine, 308.15 K
measured_parameter: solubility (mole fraction)

Task: Returns the measured solubility (mole fraction) for the input compound. Input: `COc1ccc(CC(=O)O)cc1`
Result: 0.0348

###

particulars: in acetonitrile, 318.15 K
measured_parameter: solubility (mole fraction)
A bare number is all that is needed in reply.

Task: Param item = `COc1ccc(CC(=O)O)cc1` ; retrieve measured solubility (mole fraction).
Result: 0.135
